Recorded values, source ChEMBL document CHEMBL4024781.

# Test System: UniProtKB P08183
# Assay Procedure: Activation of human P-gp expressed in high five insect cell membrane vesicles by measuring the vanadate-sensitive ATPase activity of P-gp at 0.5 uM preincubated for 5 mins in the presence of sodium orthovanadate measured after 20 mins by colorimetric method
# Condition Parameters: read-out: Activity
Property: activity at 20 min, 0.5 µM (%)

* COc1cc(C(=O)N[C@H](c2nc(C(=O)NC3CCC3)cs2)C(C)C)cc(OC)c1OC | 25.3
* COc1cc(C(=O)N[C@H](c2nc(C(=O)Nc3ccccc3C(=O)Nc3ccccc3)cs2)C(C)C)cc(OC)c1OC | 142
* CC(C)[C@H](NC(=O)c1ccc(N=[N+]=[N-])cc1)c1nc(C(=O)Nc2ccccc2C(=O)c2ccccc2)cs1 | 135

====

# Test System: Cytochrome P450 3A4 (Homo sapiens)
# Sequence (P08684 whole entry): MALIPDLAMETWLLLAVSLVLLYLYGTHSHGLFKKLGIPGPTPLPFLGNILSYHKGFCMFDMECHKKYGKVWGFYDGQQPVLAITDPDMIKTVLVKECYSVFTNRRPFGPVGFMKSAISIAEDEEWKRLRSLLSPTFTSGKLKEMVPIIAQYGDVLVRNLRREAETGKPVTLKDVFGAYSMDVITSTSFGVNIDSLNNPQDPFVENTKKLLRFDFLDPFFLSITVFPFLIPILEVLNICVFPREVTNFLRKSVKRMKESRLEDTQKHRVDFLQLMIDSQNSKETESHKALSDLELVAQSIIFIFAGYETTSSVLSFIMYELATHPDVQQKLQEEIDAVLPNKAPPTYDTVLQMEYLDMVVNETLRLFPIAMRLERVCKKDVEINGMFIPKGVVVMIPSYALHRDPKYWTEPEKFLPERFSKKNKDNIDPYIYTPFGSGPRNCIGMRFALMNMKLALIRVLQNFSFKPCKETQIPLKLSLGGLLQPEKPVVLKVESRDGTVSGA
Property: IC50 (µM)

- COc1cc(C(=O)N[C@H](c2nc(C(=O)Nc3ccccc3C(=O)c3ccccc3)cs2)C(C)C)cc(OC)c1OC: 8.23

====

Item-by-item account of activity at 20 min, 0.5 µM
# Test System: P-gp (ABCB1) (Homo sapiens)
# Assay Procedure: Activation of human P-gp expressed in high five insect cell membrane vesicles by measuring the vanadate-sensitive ATPase activity of P-gp at 0.5 uM preincubated for 5 mins in the presence of sodium orthovanadate measured after 20 mins by colorimetric method
# Condition Parameters: read-out: Activity
Property: activity at 20 min, 0.5 µM (%)

- COc1cc(C(=O)N[C@H](c2nc(C(=O)NC3CCN(c4ncccn4)CC3)cs2)C(C)C)cc(OC)c1OC: 17.1
- COc1cc(C(=O)N[C@H](c2nc(C(=O)N[C@@H]3CCCc4ccccc43)cs2)C(C)C)cc(OC)c1OC: 33.9
- COc1cc(C(=O)N[C@H](c2nc(C(=O)Nc3ccccc3Cc3ccccc3)cs2)C(C)C)cc(OC)c1OC: 112
- COc1cc(C(=O)N[C@H](c2nc(C(=O)NC3CCC(=O)CC3)cs2)C(C)C)cc(OC)c1OC: 13.1

====

# Test System: P-gp (ABCB1) (Homo sapiens, UniProt P08183)
# Sequence (P08183 whole entry): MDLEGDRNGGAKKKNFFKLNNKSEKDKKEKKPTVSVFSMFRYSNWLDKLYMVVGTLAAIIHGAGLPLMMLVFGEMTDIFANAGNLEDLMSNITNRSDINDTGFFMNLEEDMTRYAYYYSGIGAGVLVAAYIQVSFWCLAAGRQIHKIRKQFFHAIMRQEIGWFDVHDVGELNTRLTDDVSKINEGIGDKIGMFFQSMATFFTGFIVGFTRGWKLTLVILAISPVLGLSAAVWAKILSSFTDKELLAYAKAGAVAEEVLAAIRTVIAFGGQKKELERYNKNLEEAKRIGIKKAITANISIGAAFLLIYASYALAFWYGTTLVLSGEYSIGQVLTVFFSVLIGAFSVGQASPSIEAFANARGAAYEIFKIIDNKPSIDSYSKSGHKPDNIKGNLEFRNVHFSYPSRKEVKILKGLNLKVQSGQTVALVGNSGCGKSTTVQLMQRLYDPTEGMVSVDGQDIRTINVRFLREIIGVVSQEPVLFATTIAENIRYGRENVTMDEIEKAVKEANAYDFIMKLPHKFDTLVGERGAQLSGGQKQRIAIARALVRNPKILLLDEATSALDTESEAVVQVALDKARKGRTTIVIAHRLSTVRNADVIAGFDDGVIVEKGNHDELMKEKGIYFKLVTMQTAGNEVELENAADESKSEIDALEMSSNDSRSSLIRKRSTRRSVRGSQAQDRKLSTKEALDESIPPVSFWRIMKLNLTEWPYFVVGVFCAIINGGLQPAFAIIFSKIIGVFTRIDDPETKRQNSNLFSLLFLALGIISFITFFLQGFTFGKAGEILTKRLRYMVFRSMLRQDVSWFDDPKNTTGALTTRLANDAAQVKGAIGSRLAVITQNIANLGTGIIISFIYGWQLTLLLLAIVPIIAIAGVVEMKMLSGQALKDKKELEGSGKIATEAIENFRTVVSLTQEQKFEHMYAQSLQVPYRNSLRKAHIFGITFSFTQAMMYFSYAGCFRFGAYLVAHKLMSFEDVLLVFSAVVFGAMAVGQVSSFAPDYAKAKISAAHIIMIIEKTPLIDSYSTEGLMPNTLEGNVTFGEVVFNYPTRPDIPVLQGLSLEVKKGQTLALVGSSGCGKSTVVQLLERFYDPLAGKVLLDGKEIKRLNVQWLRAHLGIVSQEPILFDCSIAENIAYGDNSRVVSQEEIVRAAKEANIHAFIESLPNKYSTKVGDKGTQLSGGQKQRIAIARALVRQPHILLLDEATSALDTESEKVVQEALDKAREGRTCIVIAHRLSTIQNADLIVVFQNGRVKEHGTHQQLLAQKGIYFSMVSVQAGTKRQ
# Assay Procedure: Displacement of [125I]-IAAP from human P-gp expressed in high five insect cell membrane vesicles at >5 uM preincubated for 10 mins followed by photocrosslinking for 10 mins by exposing under UV light for 10 mins by SDS-PAGE based method
# Condition Parameters: probe [125I]-IAAP, read-out: Imax
Property: Emax at 10 min (%)

• COc1cc(C(=O)N[C@H](c2nc(C(=O)NC3CCC(F)(F)CC3)cs2)C(C)C)cc(OC)c1OC = 90

====

# Test System: P-gp (ABCB1) (Homo sapiens)
# Assay Procedure: Activation of human P-gp expressed in high five insect cell membrane vesicles by measuring the vanadate-sensitive ATPase activity of P-gp at 0.5 uM preincubated for 5 mins in the presence of sodium orthovanadate measured after 20 mins by colorimetric method
# Condition Parameters: read-out: Activity
Below: a set of entries, each annotated with reported activity at 20 min, 0.5 µM.
Property: activity at 20 min, 0.5 µM (%)

• COc1cc(NC(=O)c2csc([C@@H](NC(=O)c3ccccc3C(=O)c3ccccc3)C(C)C)n2)cc(OC)c1OC = 46
• COc1cc(C(=O)NC(CC(C)C)c2nc(C(=O)NC3CCC(F)(F)CC3)cs2)cc(OC)c1OC (centres undefined) = 16
• COc1cc(C(=O)N[C@H](c2nc(C(=O)N3CCC(N)CC3)cs2)C(C)C)cc(OC)c1OC = 45.4
• CC(C)[C@H](NC(=O)c1cccc(N=[N+]=[N-])c1)c1nc(C(=O)Nc2ccccc2C(=O)c2ccccc2)cs1 = 122
